Cited source: ChEMBL document CHEMBL5104196

biological target: Menin/Histone-lysine N-methyltransferase MLL (Homo sapiens, UniProt O00255); assay: Inhibition of Menin/fluorescein labeled MLL(4 to 43 residues) (unknown origin) protein protein interaction incubated for 1 hr by fluorescence polarization-based competitive binding assay
Sequence (O00255 whole entry, the tested form may be a part): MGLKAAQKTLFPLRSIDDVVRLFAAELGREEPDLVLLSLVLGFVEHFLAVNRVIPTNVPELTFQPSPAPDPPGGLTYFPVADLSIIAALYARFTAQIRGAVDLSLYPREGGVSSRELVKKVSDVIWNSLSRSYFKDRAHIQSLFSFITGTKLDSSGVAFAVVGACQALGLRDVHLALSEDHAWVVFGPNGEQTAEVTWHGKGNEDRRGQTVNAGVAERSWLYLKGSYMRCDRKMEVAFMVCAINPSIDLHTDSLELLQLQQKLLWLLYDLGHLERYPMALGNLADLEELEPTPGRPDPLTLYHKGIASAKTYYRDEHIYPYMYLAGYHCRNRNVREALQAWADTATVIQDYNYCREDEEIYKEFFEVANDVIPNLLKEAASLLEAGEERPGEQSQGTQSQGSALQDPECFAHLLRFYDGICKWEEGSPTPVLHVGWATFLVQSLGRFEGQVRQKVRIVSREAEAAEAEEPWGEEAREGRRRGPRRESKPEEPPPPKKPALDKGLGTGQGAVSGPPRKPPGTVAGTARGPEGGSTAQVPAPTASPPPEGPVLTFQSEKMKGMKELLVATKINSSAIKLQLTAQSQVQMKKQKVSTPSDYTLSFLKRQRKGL
Sequence (Q03164 1-2718 partner limits assumed): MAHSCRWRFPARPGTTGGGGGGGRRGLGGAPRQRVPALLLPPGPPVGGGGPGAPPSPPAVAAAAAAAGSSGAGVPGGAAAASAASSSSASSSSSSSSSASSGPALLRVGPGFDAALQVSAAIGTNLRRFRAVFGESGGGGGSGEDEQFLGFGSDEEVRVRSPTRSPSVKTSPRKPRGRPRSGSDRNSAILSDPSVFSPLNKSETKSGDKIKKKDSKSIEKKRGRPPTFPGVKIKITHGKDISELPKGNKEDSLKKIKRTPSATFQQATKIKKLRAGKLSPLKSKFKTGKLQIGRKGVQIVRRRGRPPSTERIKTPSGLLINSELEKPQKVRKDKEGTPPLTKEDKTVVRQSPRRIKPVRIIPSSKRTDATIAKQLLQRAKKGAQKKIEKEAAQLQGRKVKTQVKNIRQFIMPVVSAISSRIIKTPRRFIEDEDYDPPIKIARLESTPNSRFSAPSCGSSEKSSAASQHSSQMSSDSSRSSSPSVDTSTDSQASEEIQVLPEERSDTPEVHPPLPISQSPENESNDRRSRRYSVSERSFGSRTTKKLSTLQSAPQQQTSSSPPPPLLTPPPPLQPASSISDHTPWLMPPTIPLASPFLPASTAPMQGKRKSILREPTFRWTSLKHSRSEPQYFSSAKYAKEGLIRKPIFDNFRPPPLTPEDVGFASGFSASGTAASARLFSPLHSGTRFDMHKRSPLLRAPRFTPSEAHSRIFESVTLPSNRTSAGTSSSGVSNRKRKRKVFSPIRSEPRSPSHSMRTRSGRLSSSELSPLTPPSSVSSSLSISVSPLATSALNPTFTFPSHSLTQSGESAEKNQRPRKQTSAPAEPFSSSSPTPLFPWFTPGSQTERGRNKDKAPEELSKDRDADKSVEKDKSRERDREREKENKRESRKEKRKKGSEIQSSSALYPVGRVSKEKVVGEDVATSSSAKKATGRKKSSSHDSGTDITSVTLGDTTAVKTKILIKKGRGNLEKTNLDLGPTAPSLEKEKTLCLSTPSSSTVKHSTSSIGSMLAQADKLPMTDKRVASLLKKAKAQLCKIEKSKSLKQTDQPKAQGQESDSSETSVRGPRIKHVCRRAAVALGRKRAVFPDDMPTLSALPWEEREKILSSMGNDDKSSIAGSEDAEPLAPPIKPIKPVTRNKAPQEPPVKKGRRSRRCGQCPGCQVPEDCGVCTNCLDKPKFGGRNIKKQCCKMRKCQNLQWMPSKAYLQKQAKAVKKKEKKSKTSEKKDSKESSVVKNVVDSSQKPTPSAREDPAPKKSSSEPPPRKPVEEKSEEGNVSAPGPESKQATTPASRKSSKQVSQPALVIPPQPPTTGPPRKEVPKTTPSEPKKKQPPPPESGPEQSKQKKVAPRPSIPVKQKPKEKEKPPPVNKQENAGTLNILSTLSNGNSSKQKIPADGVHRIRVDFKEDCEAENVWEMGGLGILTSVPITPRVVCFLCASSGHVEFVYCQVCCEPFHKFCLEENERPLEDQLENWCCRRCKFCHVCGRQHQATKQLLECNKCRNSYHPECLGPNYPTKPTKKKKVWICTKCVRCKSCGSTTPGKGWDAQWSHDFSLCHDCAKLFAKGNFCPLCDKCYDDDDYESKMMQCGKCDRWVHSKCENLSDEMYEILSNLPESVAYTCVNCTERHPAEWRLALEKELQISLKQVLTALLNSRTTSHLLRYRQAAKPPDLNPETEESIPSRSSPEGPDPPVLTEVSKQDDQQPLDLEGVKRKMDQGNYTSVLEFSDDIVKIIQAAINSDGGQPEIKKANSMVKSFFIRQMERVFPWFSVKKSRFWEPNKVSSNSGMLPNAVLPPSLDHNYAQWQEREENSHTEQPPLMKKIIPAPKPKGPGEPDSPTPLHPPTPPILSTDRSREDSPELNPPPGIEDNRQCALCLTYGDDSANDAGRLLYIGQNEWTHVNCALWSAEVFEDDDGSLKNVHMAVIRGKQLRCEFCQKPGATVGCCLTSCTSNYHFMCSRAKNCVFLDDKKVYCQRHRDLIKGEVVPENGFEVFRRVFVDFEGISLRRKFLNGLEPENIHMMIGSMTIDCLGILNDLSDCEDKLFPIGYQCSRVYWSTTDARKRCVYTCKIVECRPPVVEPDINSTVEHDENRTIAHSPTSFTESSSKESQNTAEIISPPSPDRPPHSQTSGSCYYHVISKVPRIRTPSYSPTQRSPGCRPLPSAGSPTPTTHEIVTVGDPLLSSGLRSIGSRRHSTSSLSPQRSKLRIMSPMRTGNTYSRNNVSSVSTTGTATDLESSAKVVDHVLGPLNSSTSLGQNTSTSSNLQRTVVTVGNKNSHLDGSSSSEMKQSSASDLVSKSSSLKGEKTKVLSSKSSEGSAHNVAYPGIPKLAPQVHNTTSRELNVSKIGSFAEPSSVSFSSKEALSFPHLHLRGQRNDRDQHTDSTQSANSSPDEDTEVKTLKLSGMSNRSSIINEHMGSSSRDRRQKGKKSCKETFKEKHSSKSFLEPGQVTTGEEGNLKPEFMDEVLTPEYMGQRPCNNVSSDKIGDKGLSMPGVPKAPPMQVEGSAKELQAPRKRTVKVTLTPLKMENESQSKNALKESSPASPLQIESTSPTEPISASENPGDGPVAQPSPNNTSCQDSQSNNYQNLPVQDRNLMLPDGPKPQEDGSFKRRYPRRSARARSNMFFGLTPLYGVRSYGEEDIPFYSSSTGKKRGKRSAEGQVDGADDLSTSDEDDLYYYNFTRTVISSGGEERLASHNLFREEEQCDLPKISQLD
Sequence (Q03164 2719-3969 partner limits assumed): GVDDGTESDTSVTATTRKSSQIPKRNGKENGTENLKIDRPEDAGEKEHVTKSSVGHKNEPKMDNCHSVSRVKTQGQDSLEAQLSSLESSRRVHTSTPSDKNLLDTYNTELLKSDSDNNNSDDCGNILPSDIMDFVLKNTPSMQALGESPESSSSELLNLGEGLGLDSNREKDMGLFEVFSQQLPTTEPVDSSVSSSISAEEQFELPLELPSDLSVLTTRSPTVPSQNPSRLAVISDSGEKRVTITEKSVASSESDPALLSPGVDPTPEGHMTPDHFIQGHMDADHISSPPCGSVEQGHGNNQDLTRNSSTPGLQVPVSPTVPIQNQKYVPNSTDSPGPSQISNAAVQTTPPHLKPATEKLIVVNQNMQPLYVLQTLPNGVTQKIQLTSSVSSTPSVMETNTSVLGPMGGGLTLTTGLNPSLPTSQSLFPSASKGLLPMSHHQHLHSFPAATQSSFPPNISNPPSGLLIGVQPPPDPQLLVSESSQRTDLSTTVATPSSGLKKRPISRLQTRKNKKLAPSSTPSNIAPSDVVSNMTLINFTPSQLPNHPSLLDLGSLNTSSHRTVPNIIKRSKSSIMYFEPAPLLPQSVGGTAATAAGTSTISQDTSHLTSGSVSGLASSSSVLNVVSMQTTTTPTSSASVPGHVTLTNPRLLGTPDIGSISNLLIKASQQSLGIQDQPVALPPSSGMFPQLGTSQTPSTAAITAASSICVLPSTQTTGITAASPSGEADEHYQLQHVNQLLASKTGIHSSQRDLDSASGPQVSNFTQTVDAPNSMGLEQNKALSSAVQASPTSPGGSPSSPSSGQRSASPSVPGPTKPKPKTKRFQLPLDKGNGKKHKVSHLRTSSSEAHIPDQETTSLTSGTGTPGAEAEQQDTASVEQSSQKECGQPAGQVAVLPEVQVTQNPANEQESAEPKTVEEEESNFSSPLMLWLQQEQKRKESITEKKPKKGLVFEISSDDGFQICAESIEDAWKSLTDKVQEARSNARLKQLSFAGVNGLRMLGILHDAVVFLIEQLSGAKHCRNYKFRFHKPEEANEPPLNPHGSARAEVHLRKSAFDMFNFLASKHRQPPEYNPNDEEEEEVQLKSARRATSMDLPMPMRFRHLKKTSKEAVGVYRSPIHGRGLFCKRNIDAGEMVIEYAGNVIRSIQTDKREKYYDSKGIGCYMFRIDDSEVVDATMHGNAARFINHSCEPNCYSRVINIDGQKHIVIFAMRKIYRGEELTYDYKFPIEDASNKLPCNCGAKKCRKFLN
pIC50: −log10 of the molar value.
assay metric: pIC50

{"columns": ["smiles representation", "lt gt eq", "reading"],
 "data": [
  ["N#Cc1ccc(N2CC(CN3CCC(Nc4ncnc5ccc(Br)cc45)CC3)C2)cc1", "<", 5.00],
  ["N#Cc1ccc(N2CC(CN3CCC(Nc4ncnc5ccc(OCC(F)(F)F)nc45)CC3)C2)cc1", "<", 5.00],
  ["CN(C)CCOc1ccc2ncnc(NC3CCN(CC4CN(c5ccc(C#N)cc5)C4)CC3)c2n1", "=", 7.22],
  ["O=S(=O)(c1ccncc1)c1ccc(N2CC(CN3CCC(Nc4ncnc5cnc(Cl)cc45)CC3)C2)cc1", "<", 5.00],
  ["N#Cc1ccc(N2CC(CN3CCC(Nc4ncnc5cnc(N6CCCC6)cc45)CC3)C2)cc1", "<", 5.00],
  ["O=S(=O)(c1ccc(N2CC(CN3CCC(Nc4ncnc5ccc(Cl)nc45)CC3)C2)cc1)C1CC1", "=", 7.05],
  ["CN1CCN(c2ccc3ncnc(NC4CCN(CC5CN(c6ccc(C#N)cc6)C5)CC4)c3n2)CC1", "=", 7.15],
  ["CN(C)CCOc1ccc2ncnc(NC3CCN(CC4CN(c5ccc(S(=O)(=O)C6CC6)cc5)C4)CC3)c2n1", "=", 8.15],
  ["N#Cc1ccc(N2CC(CN3CCC(Nc4ncnc5cnc(NC6CCCC6)cc45)CC3)C2)cc1", "=", 7.22]
]}

----------
assay: Metabolic stability in Crab eating monkey liver microsome assessed as half life measured upto 60 min by UPLC-MS/MS analysis; assay type: ADME, Macaca fascicularis; conditions: cynomolgus monkey, liver microsomes
assay metric: half-life (h)

{"columns": ["smiles representation", "reading"],
 "data": [
  ["CN(C)CCOc1ccc2ncnc(NC3CCN(CC4CN(c5ccc(S(=O)(=O)C6CC6)cc5)C4)CC3)c2n1", 1.08]
]}

----------
assay: Metabolic stability in Beagle dog liver microsome assessed as compound remaining measured after 60 min by UPLC-MS/MS analysis; format: ADME, Canis lupus familiaris; conditions: liver microsomes, read-out: Stability

{"columns": ["smiles representation", "remaining at 1 h, %"],
 "data": [
  ["CN(C)CCOc1ccc2ncnc(NC3CCN(CC4CN(c5ccc(S(=O)(=O)C6CC6)cc5)C4)CC3)c2n1", 65]
]}

----------
assay: Metabolic stability in Beagle dog liver assessed as intrinsic clearance measured upto 60 min by UPLC-MS/MS analysis; format: ADME, tissue-based, Canis lupus familiaris; conditions: read-out: CLH

{"columns": ["smiles representation", "CLint scaled"],
 "data": [
  ["CN(C)CCOc1ccc2ncnc(NC3CCN(CC4CN(c5ccc(S(=O)(=O)C6CC6)cc5)C4)CC3)c2n1", "20 mL/min/kg"]
]}

----------
assay: Metabolic stability in Crab eating monkey liver assessed as intrinsic clearance measured upto 60 min by UPLC-MS/MS analysis; assay type: ADME, tissue-based, Macaca fascicularis; settings: cynomolgus monkey, read-out: CLH
assay metric: CLint scaled (mL/min/kg)

{"columns": ["smiles representation", "assay metric", "reading"],
 "data": [
  ["CN(C)CCOc1ccc2ncnc(NC3CCN(CC4CN(c5ccc(S(=O)(=O)C6CC6)cc5)C4)CC3)c2n1", "CLint scaled", 31.7]
]}

----------
assay: Cmax in Sprague-Dawley rat at 5 mg/kg, iv; type: ADME, organism-based; set-up: dose 5 mg/kg, route iv; conditions: in vivo
assay metric: Cmax (ng/mL)

{"columns": ["smiles representation", "assay metric", "measure unit", "reading"],
 "data": [
  ["CN(C)CCOc1ccc2ncnc(NC3CCN(CC4CN(c5ccc(S(=O)(=O)C6CC6)cc5)C4)CC3)c2n1", "Cmax", "ng/mL", 1190]
]}

----------
assay: Oral bioavailability in Sprague-Dawley rat at 15 mg/kg; format: ADME, organism-based; details: in vivo

{"columns": ["smiles representation", "bioavailability, %"],
 "data": [
  ["CN(C)CCOc1ccc2ncnc(NC3CCN(CC4CN(c5ccc(S(=O)(=O)C6CC6)cc5)C4)CC3)c2n1", 16.9]
]}

----------
assay: AUC (0 to infinity) in Sprague-Dawley rat at 15 mg/kg, po; format: ADME, organism-based; set-up: time infinity, dose 15 mg/kg, route po; conditions: in vivo

{"columns": ["smiles representation", "AUC(0-inf) / ng·h/mL"],
 "data": [
  ["CN(C)CCOc1ccc2ncnc(NC3CCN(CC4CN(c5ccc(S(=O)(=O)C6CC6)cc5)C4)CC3)c2n1", 1480]
]}

----------
assay: AUC (0 to t) in Sprague-Dawley rat at 15 mg/kg, po; type: ADME, organism-based; design: dose 15 mg/kg, route po; details: in vivo
assay metric: AUC(0-t) (ng·h/mL)

{"columns": ["smiles representation", "assay metric", "reading"],
 "data": [
  ["CN(C)CCOc1ccc2ncnc(NC3CCN(CC4CN(c5ccc(S(=O)(=O)C6CC6)cc5)C4)CC3)c2n1", "AUC(0-t)", 864]
]}

----------
test: Solubility of compound in phosphate buffer at pH 7.4 by spectrophotometric analysis; assay type: physicochemical
assay metric: log10 solubility (log10 of the value in µg/mL)

{"columns": ["smiles representation", "assay metric", "reading"],
 "data": [
  ["O=S(=O)(c1ccncc1)c1ccc(N2CC(CN3CCC(Nc4ncnc5ccc(Cl)nc45)CC3)C2)cc1", "log10 solubility", 1.00],
  ["CN(C)CCOc1ccc2ncnc(NC3CCN(CC4CN(c5ccc(C#N)cc5)C4)CC3)c2n1", "log10 solubility", 2.50],
  ["CN(C)CCOc1ccc2ncnc(NC3CCN(CC4CN(c5ccc(S(=O)(=O)C6CC6)cc5)C4)CC3)c2n1", "log10 solubility", 2.60],
  ["CN(C)CCOc1ccc2ncnc(NC3CCN(CC4CN(c5ccc(S(=O)(=O)C6CN(C(=O)OC(C)(C)C)C6)cc5)C4)CC3)c2n1", "log10 solubility", 1.84],
  ["O=S(=O)(c1ccc(N2CC(CN3CCC(Nc4ncnc5ccc(Cl)nc45)CC3)C2)cc1)C1CC1", "log10 solubility", 1.20],
  ["CN(C)CCOc1ccc2ncnc(NC3CCN(CC4CN(c5ccc(S(=O)(=O)c6ccncc6)cc5)C4)CC3)c2n1", "log10 solubility", 2.18]
]}

----------
test: Cmax in Sprague-Dawley rat at 15 mg/kg, po; format: ADME, organism-based; design: dose 15 mg/kg, route po; conditions: in vivo

{"columns": ["smiles representation", "Cmax [ng/mL]"],
 "data": [
  ["CN(C)CCOc1ccc2ncnc(NC3CCN(CC4CN(c5ccc(S(=O)(=O)C6CC6)cc5)C4)CC3)c2n1", 56.7]
]}

----------
assay: Metabolic stability in Beagle dog liver microsome assessed as half life measured upto 60 min by UPLC-MS/MS analysis; type: ADME, Canis lupus familiaris; conditions: liver microsomes

{"columns": ["smiles representation", "half-life"],
 "data": [
  ["CN(C)CCOc1ccc2ncnc(NC3CCN(CC4CN(c5ccc(S(=O)(=O)C6CC6)cc5)C4)CC3)c2n1", "1.7 h"]
]}

----------
test: MRT in Sprague-Dawley rat at 15 mg/kg, po; format: ADME, organism-based; details: in vivo

{"columns": ["smiles representation", "measure unit", "MRT"],
 "data": [
  ["CN(C)CCOc1ccc2ncnc(NC3CCN(CC4CN(c5ccc(S(=O)(=O)C6CC6)cc5)C4)CC3)c2n1", "h", 12]
]}

----------
target: Menin/Histone-lysine N-methyltransferase MLL (Homo sapiens, UniProt O00255); experiment: Inhibition of Menin/fluorescein labeled MLL(4 to 43 residues) (unknown origin) protein protein interaction incubated for 1 hr by fluorescence polarization-based competitive binding assay
// classify: if (IC50 < 300 nM) 1 (yes) else 0 (no)

{"columns": ["smiles representation", "discrete label"],
 "data": [
  ["CN(C)CCN(C)C1CCN(c2cc3c(NC4CCN(CC5CN(c6ccc(C#N)cc6)C5)CC4)ncnc3cn2)CC1", "1 (yes)"],
  ["CC(C)CNc1cc2c(NC3CCN(CC4CN(c5ccc(C#N)cc5)C4)CC3)ncnc2cn1", "0 (no)"],
  ["N#Cc1ccc(N2CC(CN3CCC(Nc4ncnc5cnc(Cl)cc45)CC3)C2)cc1", "0 (no)"],
  ["CN(C)CCOc1ccc2ncnc(NC3CCN(CC4CN(c5ccc(S(=O)(=O)c6ccncc6)cc5)C4)CC3)c2n1", "1 (yes)"],
  ["COC(CNc1ccc2ncnc(NC3CCN(CC4CN(c5ccc(C#N)cc5)C4)CC3)c2n1)OC", "0 (no)"],
  ["N#Cc1ccc(N2CC(CN3CCC(Nc4ncnc5ccc(NCCN)nc45)CC3)C2)cc1", "0 (no)"],
  ["CC(C)(C)OC(=O)N1CC(S(=O)(=O)c2ccc(N3CC(CN4CCC(Nc5ncnc6cnc(Cl)cc56)CC4)C3)cc2)C1", "0 (no)"],
  ["CN(C)C1CCN(c2ccc3ncnc(NC4CCN(CC5CN(c6ccc(C#N)cc6)C5)CC4)c3n2)CC1", "1 (yes)"],
  ["N#Cc1ccc(N2CC(CN3CCC(Nc4ncnc5ccc(N6CCNCC6)nc45)CC3)C2)cc1", "1 (yes)"],
  ["CN1CCN(c2cc3c(NC4CCN(CC5CN(c6ccc(C#N)cc6)C5)CC4)ncnc3cn2)CC1", "0 (no)"],
  ["N#Cc1ccc(N2CC(CN3CCC(Nc4ncnc5ccc(CC(F)(F)F)cc45)CC3)C2)cc1", "0 (no)"],
  ["CN(C)CCNc1ccc2ncnc(NC3CCN(CC4CN(c5ccc(C#N)cc5)C4)CC3)c2n1", "0 (no)"],
  ["CN(C)CCOc1ccc2ncnc(NC3CCN(CC4CN(c5ccc(S(=O)(=O)C6CN(C(=O)OC(C)(C)C)C6)cc5)C4)CC3)c2n1", "1 (yes)"],
  ["CCNCCNc1ccc2ncnc(NC3CCN(CC4CN(c5ccc(C#N)cc5)C4)CC3)c2n1", "0 (no)"],
  ["N#Cc1ccc(N2CC(CN3CCC(Nc4ncnc5cnc(N6CCOCC6)cc45)CC3)C2)cc1", "0 (no)"],
  ["N#Cc1ccc(N2CC(CN3CCC(Nc4ncnc5cnc(OCC(F)(F)F)cc45)CC3)C2)cc1", "0 (no)"],
  ["CC(C)(C)OC(=O)N1CC(S(=O)(=O)c2ccc(N3CC(CN4CCC(Nc5ncnc6ccc(Cl)nc56)CC4)C3)cc2)C1", "1 (yes)"],
  ["N#Cc1ccc(N2CC(CN3CCC(Nc4ncnc5cnc(NCC6CC6)cc45)CC3)C2)cc1", "0 (no)"],
  ["CN(C)C1CCN(c2cc3c(NC4CCN(CC5CN(c6ccc(C#N)cc6)C5)CC4)ncnc3cn2)CC1", "0 (no)"],
  ["CC(C)Nc1cc2c(NC3CCN(CC4CN(c5ccc(C#N)cc5)C4)CC3)ncnc2cn1", "0 (no)"],
  ["CCN(CC)CCNc1ccc2ncnc(NC3CCN(CC4CN(c5ccc(C#N)cc5)C4)CC3)c2n1", "0 (no)"],
  ["N#Cc1ccc(N2CC(CN3CCC(Nc4ncnc5cnc(NC6CC6)cc45)CC3)C2)cc1", "0 (no)"],
  ["N#Cc1ccc(N2CC(CN3CCC(Nc4ncnc5ccc(Cl)nc45)CC3)C2)cc1", "0 (no)"],
  ["O=S(=O)(c1ccc(N2CC(CN3CCC(Nc4ncnc5ccc(Cl)nc45)CC3)C2)cc1)c1ccccn1", "1 (yes)"],
  ["CN(C)CCN(C)c1ccc2ncnc(NC3CCN(CC4CN(c5ccc(C#N)cc5)C4)CC3)c2n1", "1 (yes)"],
  ["N#Cc1ccc(N2CC(CN3CCC(Nc4ncnc5ccc(NCCO)nc45)CC3)C2)cc1", "0 (no)"],
  ["O=S(=O)(c1ccncc1)c1ccc(N2CC(CN3CCC(Nc4ncnc5ccc(Cl)nc45)CC3)C2)cc1", "1 (yes)"],
  ["N#Cc1ccc(N2CC(CN3CCC(Nc4ncnc5cnc(N6CCCCC6)cc45)CC3)C2)cc1", "0 (no)"]
]}
